Target: Neuronal acetylcholine receptor subunit alpha-7 (Homo sapiens, UniProt P36544)
Sequence (P36544 whole entry): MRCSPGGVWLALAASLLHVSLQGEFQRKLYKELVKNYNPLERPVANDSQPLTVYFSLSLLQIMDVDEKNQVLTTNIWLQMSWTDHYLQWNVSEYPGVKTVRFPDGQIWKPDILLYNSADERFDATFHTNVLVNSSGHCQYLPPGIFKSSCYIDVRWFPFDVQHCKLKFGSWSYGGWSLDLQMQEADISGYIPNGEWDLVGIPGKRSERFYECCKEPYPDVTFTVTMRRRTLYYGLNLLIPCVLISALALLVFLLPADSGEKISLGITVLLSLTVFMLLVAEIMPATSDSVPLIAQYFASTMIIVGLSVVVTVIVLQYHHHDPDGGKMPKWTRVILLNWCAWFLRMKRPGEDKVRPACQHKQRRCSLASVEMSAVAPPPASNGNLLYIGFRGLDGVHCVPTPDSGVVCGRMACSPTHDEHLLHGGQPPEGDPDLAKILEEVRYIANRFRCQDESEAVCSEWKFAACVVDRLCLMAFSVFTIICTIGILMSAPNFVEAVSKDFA
Experiment: Binding affinity to alpha7 nAChR (unknown origin) assessed as dissociation constant
READOUT_TYPE: Ki (nM)
# output: bare number, implied unit nM

Exam item: Form entry - test system: Neuronal acetylcholine receptor subunit alpha-7 (Homo sapiens, UniProt P36544); read-out: Ki; molecule: c1cncc(C[C@H]2[C@H](Oc3ccc(-c4ccc5[nH]ccc5c4)nn3)C3CCN2CC3)c1 (relative stereo)
Marked response: 1.4

Exam item: Form entry - test system: Neuronal acetylcholine receptor subunit alpha-7 (Homo sapiens, UniProt P36544); read-out: Ki; molecule: c1cncc(C[C@@H]2[C@@H](Oc3ccc(-c4ccc[nH]4)nn3)C3CCN2CC3)c1 (relative stereo)
Marked response: 42

Exam item: Form entry - test system: Neuronal acetylcholine receptor subunit alpha-7 (Homo sapiens, UniProt P36544); read-out: Ki; molecule: c1ccc(-c2ccc(O[C@@H]3C4CCN(CC4)[C@H]3Cc3cccnc3)nn2)cc1 (relative stereo)
Marked response: 100

Exam item: Form entry - test system: Neuronal acetylcholine receptor subunit alpha-7 (Homo sapiens, UniProt P36544); read-out: Ki; molecule: c1cncc(C[C@@H]2[C@@H](Oc3cc4ccccc4cn3)C3CCN2CC3)c1 (relative stereo)
Marked response: 1000
